Tested on: HCC 2998
Assay: NCI tumour cell line growth inhibition, 48 h
Calls of active or inactive are those of the source. No stated cut-off is given here; in the data, active = GI50 up to about 1.1 µM and inactive = higher.
compounds and their reported GI50

{"compound": "O=C1/C(=C/c2ccc(Oc3ccccc3)cc2)N=C(c2ccccc2)N1c1ccc(S(=O)(=O)Nc2nccs2)cc1", "readoutType": "GI50", "measured": "1.56 µM (inactive)"}
{"compound": "CCCOC1OC(CS(=O)(=O)O)C(O)C(O)C1O (configuration not stated)", "readoutType": "GI50", "measured": "> 100 µM (inactive)"}
{"compound": "COc1ccc([C@@]23CCC(=O)C[C@@H]2N(C)CC3)cc1OC", "readoutType": "GI50", "measured": "> 100 µM (inactive)"}

Record summary for CCOC(=O)C(NC(=O)N(C1=NCC(C)S1)C1CCCCC1)(OC)C(F)(F)F (configuration not stated) : reported GI50 = 43.9 µM (inactive)

Record summary for `C=C1[C@@H](OC(C)=O)[C@H]2[C@@H](OC(C)=O)[C@@](C)(OC(C)=O)C[C@]2(OC(C)=O)C(=O)[C@@H](C)/C=C/C(C)(C)C(=O)C[C@H]1OC(C)=O` : reported GI50 = > 100 µM (inactive)

Record summary for `CC(C)(C)c1ccc(C(O)c2ccc(C(C)(C)C)cc2)cc1` : reported GI50 = 21 µM (inactive)

Record summary for O=C1c2ccccc2C(=O)c2c1ccc(O)c2O [ATHRAQUINONES A] : reported GI50 = 33.1 µM (inactive)
